Origin of the recorded values: patent US8178506B2

- Test system: HeLa cells
- test_method_notes: Cell cycle assay in HeLa cells
- Type: cell-based, human
- condition_description: HeLa cells, 50 nM, 48 hours; percentage of cells in phase, average of replicates
In the oligonucleotide strings, read from the 5' end, every base follows the letter of its sugar. An asterisk marks phosphorothioate; unmarked linkages are phosphodiester. Other units and linkages are bracketed, terminal groups are in braces. A string of capitals states the bases alone. e = 2'-O-(2-methoxyethyl) (MOE); [5mC] = 5-methylcytosine; d = 2'-deoxy (DNA)
readout: % cells in cell cycle phase: S (%)
Entry rule: numbers only, all in %.

327902 (antisense eG*eG*e[5mC]*eT*eG*eT*e[5mC]*eA*eA*eT*eT*e[5mC]*eA*eT*eA*eG*eG*eT*e[5mC]*eA*eG) [compound 327902] = 30

What does the data say about its % cells in cell cycle phase: S? Entry: 328403 (antisense eA*eG*eG*e[5mC]*e[5mC]*dT*dA*dT*dT*d[5mC]*d[5mC]*dT*dG*dT*dA*eG*e[5mC]*eA*eA*eA) [compound 328403] 27

// repeat for 328383 (eA*eG*eA*eG*eG*dG*dG*dA*dG*dA*d[5mC]*dG*dA*dG*dA*eG*e[5mC]*eA*e[5mC]*eT) [compound 328383] and report 25

Ok, now 327905 (antisense e[5mC]*eA*eG*eA*e[5mC]*eT*e[5mC]*e[5mC]*eG*eG*eT*eG*eG*eA*eA*eT*eG*eA*eA*eG*eG*eA) [compound 327905] 30

###

- System: A549 cells
- test_method_notes: Cell cycle assay in A549 cells
- Type: cell-based, human
- condition_description: A549 cells, 150 nM, 24 hours; relative to the untreated control cells in that phase
readout: % cells in cell cycle phase: S (%)
Give the value in % but do not write % after it.

Completed entries (count: 3):
338836 (antisense TCCTCGGTGGCAGAGCTCAG; all 2'-MOE, all phosphorothioate, methylation of C not given here) [compound 338836] = 69
338769 (antisense GCTTCCCAGCGGCCTATAGT; all 2'-MOE, all phosphorothioate, methylation of C not given here) [compound 338769] = 71
338637 (antisense TCAGAGCGGAGAGACACAAG; all 2'-MOE, all phosphorothioate, methylation of C not given here) [compound 338637] = 66

With those in mind, consider the next substance.
Which % cells in cell cycle phase: S value is on record for 340350 (antisense TGCTCAATAAATACCCGTTGAA; all 2'-MOE, all phosphorothioate, methylation of C not given here) [compound 340350] ? 40

###

- System: HeLa cells
- test_method_notes: Cell cycle assay in HeLa cells
- Type: cell-based, human
- condition_description: HeLa cells, 150 nM oligomeric compound, 24 hours, relative to untreated control (UTC = 100)
In the oligonucleotide strings, read from the 5' end, every base follows the letter of its sugar. An asterisk marks phosphorothioate; unmarked linkages are phosphodiester. Other units and linkages are bracketed, terminal groups are in braces. A string of capitals states the bases alone. e = 2'-O-(2-methoxyethyl) (MOE); [5mC] = 5-methylcytosine; d = 2'-deoxy (DNA)
Output Y for records whose % cells in cell cycle phase G1 is lower than 80%, N for records at or above 80%.

328780 (antisense eT*eG*eT*e[5mC]*eA*dT*dG*dG*dA*d[5mC]*dA*dG*dG*dA*dT*eG*eA*eA*eT*eA) [compound 328780] = N
328419 (antisense eT*eG*eT*eT*eG*d[5mC]*d[5mC]*dT*dA*dA*d[5mC]*dG*dA*dA*d[5mC]*eA*e[5mC]*eA*eG*eA) [compound 328419] = N
328374 (eA*eG*e[5mC]*eT*eT*dT*dA*dG*d[5mC]*dT*dG*dG*dG*dT*d[5mC]*eA*eG*eG*eA*e[5mC]; antisense) [compound 328374] = Y
328115 (antisense eA*eG*eA*eA*eG*eG*eT*eG*eG*eG*eG*eA*eG*e[5mC]*eA*eG*e[5mC]*eG*eT*e[5mC]*eA) [compound 328115] = N
328136 (eA*eA*e[5mC]*eT*eA*e[5mC]*eT*eT*e[5mC]*e[5mC]*eA*eG*eA*eG*e[5mC]*eA*eG*eG*eT*eG*eA; anti-miR) [compound 328136] = N

Moving on to the next substance.
Is the reported % cells in cell cycle phase G1 for 327944 (antisense eA*eA*eA*eG*eT*eG*eT*e[5mC]*eA*eG*eA*eT*eA*e[5mC]*eG*eG*eT*eG*eT*eG*eG) [compound 327944] strictly below 80%? N
